- Tested on: ANKA strain of P. berghei
- experimentSummary: Single dose in vivo screen in P. berghei-infected NMRI mice
- conditionLabel: single 30 mg/kg po dose in SSV one day post-infection; percent reduction in parasitemia on day three post-infection
Measured Activity (%) 30 mg/kg SSV po accompanies every entry in the list below.
Answer in %, number only, no unit symbol.

The following molecules have reported results that may help.
CS(=O)(=O)O.c1cc(C2CCC3(CC2)OOC2(O3)C3CC4CC(C3)CC2C4)ccc1OCCN1CCSCC1 (stereo not drawn) [OZ460] : 99
O[C@H]1CC[C@@H](C2CCC3(CC2)OOC2(O3)C3CC4CC(C3)CC2C4)CC1 (stereo partly drawn) [OZ508] : 99.8
O=C1CCC([C@H]2CC[C@]3(CC2)OOC2(O3)C3CC4CC(C3)CC2C4)CC1 (stereo partly drawn) [OZ495] : 99.3

Note: attention shifts to another entry.
Ask: Name the recorded Activity (%) 30 mg/kg SSV po for CS(=O)(=O)O.c1cc([C@H]2CC[C@]3(CC2)OOC2(O3)C3CC4CC(C3)CC2C4)ccc1OC1CCNCC1 (stereo partly drawn) [OZ429] .
Result: 99.97
